# measuredOn: PSMA-expressing C4-2 cells (Homo sapiens, UniProt Q04609)
# Construct: PSMA-expressing C4-2 cells (ATCC, Cat. No. CRL-3314) were cultured in RPMI-1640; host or cells: C4-2 cells
# Sequence (Q04609 whole entry): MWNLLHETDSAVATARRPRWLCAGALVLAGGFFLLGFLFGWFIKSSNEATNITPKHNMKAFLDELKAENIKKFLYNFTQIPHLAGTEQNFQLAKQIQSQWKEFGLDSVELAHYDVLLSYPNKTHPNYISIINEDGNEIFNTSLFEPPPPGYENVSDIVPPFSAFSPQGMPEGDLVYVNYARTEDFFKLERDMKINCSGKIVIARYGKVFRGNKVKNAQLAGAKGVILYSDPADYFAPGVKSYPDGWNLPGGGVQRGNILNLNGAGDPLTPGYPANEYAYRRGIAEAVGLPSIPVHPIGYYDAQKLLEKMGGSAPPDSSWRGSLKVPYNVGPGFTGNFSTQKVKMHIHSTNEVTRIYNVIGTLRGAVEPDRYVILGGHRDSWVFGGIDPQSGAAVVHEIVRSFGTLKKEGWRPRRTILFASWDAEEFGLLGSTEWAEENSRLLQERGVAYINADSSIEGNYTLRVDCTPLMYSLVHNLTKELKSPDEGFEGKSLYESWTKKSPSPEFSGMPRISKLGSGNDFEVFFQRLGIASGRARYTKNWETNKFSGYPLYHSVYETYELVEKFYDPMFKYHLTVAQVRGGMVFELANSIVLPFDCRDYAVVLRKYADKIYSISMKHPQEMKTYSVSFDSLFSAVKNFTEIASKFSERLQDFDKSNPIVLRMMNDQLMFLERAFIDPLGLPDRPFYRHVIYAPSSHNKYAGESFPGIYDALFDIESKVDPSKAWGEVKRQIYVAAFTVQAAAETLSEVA
# protocol: FACS binding assay (competition with 50 nM PSM-0183)
# conditionDetails: FACS binding, C4-2 cells, category; read-out: pIC50 [C4-2] CAT (converted)
Numbered stars: 1 amine (or outer) side, 2 acyl side, 3 side chain; on linkers, the order of the positions; unused ones are H or OH. Bridge positions count the residues as written; N and C are the ends. Square brackets hold non-standard residues; d marks the D form. Peptide text beside a SMILES is read from it. * marks the point of attachment. DOTA = O=C(O)CN1CCN(CC(=O)O)CCN(CC(=O)*)CCN(CC(=O)O)CC1; Phe(3-Cl) = N[C@@H](Cc1cccc(Cl)c1)C(=O)O; Phe(4-Cl) = N[C@@H](Cc1ccc(Cl)cc1)C(=O)O; Arg(Me) = CNC(=N)NCCC[C@H](N)C(=O)O; Ethylenediamine = C(CN[*:2])N[*:1]; X1 = O=C(CC1CCN([*:1])CC1)[*:2]; Lys(Me) = CNCCCC[C@H](N)C(=O)O; Tle = CC(C)(C)[C@H](N)C(=O)O; Nle = CCCC[C@H](N)C(=O)O; Aib = CC(C)(N)C(=O)O

# compound, measuredOn, IC50
records = [
    ("CNCCCC[C@@H]1NC(=O)[C@@H](NC(=O)[C@H](Cc2ccccc2)NC(=O)C(C)(C)NC(=O)[C@@H](NC(=O)CC2CCN(C(=O)CN3CCN(CC(=O)O)CCN(CC(=O)O)CCN(CC(=O)O)CC3)CC2)[C@@H](C)O)CSSC[C@@H](C(=O)N[C@H](C(=O)NCCN)C(C)(C)C)NC(=O)[C@H](CC(N)=O)NC(=O)C(C)(C)NC(=O)[C@H](CCCNC(=N)NC)NC1=O [PSM-605] ({DOTA}-[X1]T[Aib]FC[Lys(Me)][Arg(Me)][Aib]NC[Tle]-Ethylenediamine; disulfide 5-10)", "PSMA-expressing C4-2 cells (Homo sapiens, UniProt Q04609)", "< 200 nM"),
    ("CCCC[C@H](NC(=O)[C@@H]1CSSC[C@H](NC(=O)[C@H](Cc2ccccc2)NC(=O)[C@H](C)NC(=O)[C@@H](NC(C)=O)[C@@H](C)O)C(=O)N[C@@H](CCCCN)C(=O)N[C@@H](CCCNC(=N)N)C(=O)N[C@@H](C)C(=O)N[C@@H](CC(N)=O)C(=O)N1)C(=O)N[C@H](C(=O)N[C@@H](C)C(N)=O)[C@@H](C)O [PSM-0562] (Ac-TAFCKRANC[Nle]TA-NH2; disulfide 4-9)", "PSMA-expressing C4-2 cells (Homo sapiens, UniProt Q04609)", "200 to 1260 nM"),
    ("CC(=O)N[C@H](C(=O)NC(C)(C)C(=O)N[C@@H](Cc1ccc(Cl)cc1)C(=O)N[C@H]1CSSC[C@@H](C(=O)N[C@H](C(=O)N[C@H](C(N)=O)[C@@H](C)O)C(C)(C)C)NC(=O)[C@H](CC(C)C)NC(=O)C(C)(C)NC(=O)[C@H](CCCNC(=N)N)NC(=O)[C@H](CCCCN)NC1=O)[C@@H](C)O [PSM-0584] (Ac-T[Aib][Phe(4-Cl)]CKR[Aib]LC[Tle]T-NH2; disulfide 4-9)", "PSMA-expressing C4-2 cells (Homo sapiens, UniProt Q04609)", "< 200 nM"),
    ("C[C@@H](O)[C@H](NC(=O)[C@@H](NC(=O)[C@@H]1CSSC[C@H](NC(=O)[C@H](Cc2cccc(Cl)c2)NC(=O)C(C)(C)NC(=O)[C@@H](NC(=O)CC2CCN(C(=O)CN3CCN(CC(=O)O)CCN(CC(=O)O)CCN(CC(=O)O)CC3)CC2)[C@@H](C)O)C(=O)N[C@@H](CCCCN)C(=O)N[C@@H](CCCNC(=N)N)C(=O)NC(C)(C)C(=O)N[C@@H](CC(N)=O)C(=O)N1)C(C)(C)C)C(N)=O [PSM-0583] ({DOTA}-[X1]T[Aib][Phe(3-Cl)]CKR[Aib]NC[Tle]T-NH2; disulfide 5-10)", "PSMA-expressing C4-2 cells (Homo sapiens, UniProt Q04609)", "< 200 nM"),
    ("CCCC[C@H](NC(=O)[C@@H]1CSSC[C@H](NC(=O)[C@H](C)NC(=O)[C@H](C)NC(=O)[C@@H](NC(C)=O)[C@@H](C)O)C(=O)N[C@@H](CCCCN)C(=O)N[C@@H](CCCNC(=N)N)C(=O)N[C@@H](C)C(=O)N[C@@H](CC(N)=O)C(=O)N1)C(=O)N[C@H](C(=O)N[C@@H](CC(=O)O)C(N)=O)[C@@H](C)O [PSM-0586] (Ac-TAACKRANC[Nle]TD-NH2; disulfide 4-9)", "PSMA-expressing C4-2 cells (Homo sapiens, UniProt Q04609)", "> 3160 nM"),
]

###

# measuredOn: Fc-fusion protein of human PSMA (hPSMA-Fc) (Homo sapiens, UniProt Q04609)
# Construct: purchased Acro Biosystems PSA-H5264
# Sequence (Q04609 44-750 limits assumed): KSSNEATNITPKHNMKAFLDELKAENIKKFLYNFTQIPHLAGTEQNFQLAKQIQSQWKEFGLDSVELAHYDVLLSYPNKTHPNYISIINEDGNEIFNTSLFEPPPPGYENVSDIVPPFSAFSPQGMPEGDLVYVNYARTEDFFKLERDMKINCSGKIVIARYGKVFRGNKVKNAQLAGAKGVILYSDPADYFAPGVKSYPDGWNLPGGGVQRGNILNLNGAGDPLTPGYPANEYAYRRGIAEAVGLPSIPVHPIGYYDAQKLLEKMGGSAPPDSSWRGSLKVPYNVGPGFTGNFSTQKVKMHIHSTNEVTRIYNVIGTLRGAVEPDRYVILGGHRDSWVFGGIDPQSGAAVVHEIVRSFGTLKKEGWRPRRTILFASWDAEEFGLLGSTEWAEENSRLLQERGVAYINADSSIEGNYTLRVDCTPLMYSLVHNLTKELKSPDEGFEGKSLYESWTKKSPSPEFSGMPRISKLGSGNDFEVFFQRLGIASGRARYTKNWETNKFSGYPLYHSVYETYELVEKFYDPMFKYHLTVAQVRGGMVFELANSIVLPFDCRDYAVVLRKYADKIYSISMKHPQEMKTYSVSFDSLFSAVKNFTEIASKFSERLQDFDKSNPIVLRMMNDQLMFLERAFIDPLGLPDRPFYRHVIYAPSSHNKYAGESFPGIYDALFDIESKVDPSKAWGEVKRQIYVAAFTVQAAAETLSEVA
# protocol: Surface plasmon resonance assay (Biacore T200, single cycle kinetic)
# Type: binding
# conditionDetails: PSMA SPR assay, hPSMA-Fc, 25° C.; pKD category; read-out: pKD CAT (converted)
Numbered stars: 1 amine (or outer) side, 2 acyl side, 3 side chain; on linkers, the order of the positions; unused ones are H or OH. Bridge positions count the residues as written; N and C are the ends. Square brackets hold non-standard residues; d marks the D form. Peptide text beside a SMILES is read from it. * marks the point of attachment. TtdsdLys(DOTA)NH2 = NC(=O)[C@@H](CCCCNC(=O)CN1CCN(CC(=O)O)CCN(CC(=O)O)CCN(CC(=O)O)CC1)NC(=O)CCC(=O)NCCCOCCOCCOCCCN*; DOTA = O=C(O)CN1CCN(CC(=O)O)CCN(CC(=O)*)CCN(CC(=O)O)CC1; Phe(4-Cl) = N[C@@H](Cc1ccc(Cl)cc1)C(=O)O; X1 = O=C(CC1CCN([*:1])CC1)[*:2]; αMeD = C[C@](N)(CC(=O)O)C(=O)O; Tle = CC(C)(C)[C@H](N)C(=O)O; Hexanoyl = CCCCCC(=O)*; Aib = CC(C)(N)C(=O)O
Catalogue of compounds with associated Kd

# compound, Kd
measured = [
    ("CCCCCC(=O)N[C@H](C(=O)NC(C)(C)C(=O)N[C@@H](Cc1ccccc1)C(=O)N[C@H]1CSSC[C@@H](C(=O)N[C@H](C(=O)N[C@H](C(=O)NCCCOCCOCCOCCCNC(=O)CCC(=O)N[C@H](CCCCNC(=O)CN2CCN(CC(=O)O)CCN(CC(=O)O)CCN(CC(=O)O)CC2)C(N)=O)[C@@H](C)O)C(C)(C)C)NC(=O)[C@H](CC(N)=O)NC(=O)C(C)(C)NC(=O)[C@H](CCC(N)=O)NC(=O)[C@H](CCCCN)NC1=O)[C@@H](C)O [PSM-0289] (Hexanoyl-T[Aib]FCKQ[Aib]NC[Tle]T-{TtdsdLys(DOTA)NH2}; disulfide 4-9)", "12.6 to 126 nM"),
    ("C[C@@H](O)[C@H](NC(=O)[C@@H](NC(=O)[C@@H]1CSSC[C@H](NC(=O)[C@H](Cc2ccc(Cl)cc2)NC(=O)[C@](C)(CC(=O)O)NC(=O)[C@@H](NC(=O)CC2CCN(C(=O)CN3CCN(CC(=O)O)CCN(CC(=O)O)CCN(CC(=O)O)CC3)CC2)[C@@H](C)O)C(=O)N[C@@H](CCCCN)C(=O)N[C@@H](CCCNC(=N)N)C(=O)NC(C)(C)C(=O)N[C@@H](CC(N)=O)C(=O)N1)C(C)(C)C)C(N)=O [PSM-0346] ({DOTA}-[X1]T[αMeD][Phe(4-Cl)]CKR[Aib]NC[Tle]T-NH2; disulfide 5-10)", "126 to 501 nM"),
]

###

# measuredOn: Fc-fusion protein of human PSMA (hPSMA-Fc) (Homo sapiens)
# Construct: purchased Acro Biosystems PSA-H5264
# protocol: Surface plasmon resonance assay (Biacore T200, single cycle kinetic)
# Type: binding
# conditionDetails: pKD category for PSMA SPR activity assay, hPSMA-Fc, 25° C.; read-out: pKD CAT (converted)
Numbered stars: 1 amine (or outer) side, 2 acyl side, 3 side chain; on linkers, the order of the positions; unused ones are H or OH. Bridge positions count the residues as written; N and C are the ends. Square brackets hold non-standard residues; d marks the D form. Peptide text beside a SMILES is read from it. * marks the point of attachment. DOTA = O=C(O)CN1CCN(CC(=O)O)CCN(CC(=O)*)CCN(CC(=O)O)CC1; Phe(4-Cl) = N[C@@H](Cc1ccc(Cl)cc1)C(=O)O; Ethylenediamine = C(CN[*:2])N[*:1]; X1 = O=C(CC1CCN([*:1])CC1)[*:2]; Tle = CC(C)(C)[C@H](N)C(=O)O; αMeS = C[C@](N)(CO)C(=O)O; Aib = CC(C)(N)C(=O)O

# compound, Kd
records = [
    ("CC(=O)NC(C)(C)C(=O)N[C@@H](Cc1ccc(Cl)cc1)C(=O)N[C@H]1CSSC[C@@H](C(=O)N[C@H](C(=O)NCCNC(=O)CN2CCN(CC(=O)O)CCN(CC(=O)O)CCN(CC(=O)O)CC2)C(C)(C)C)NC(=O)[C@H](CC(N)=O)NC(=O)C(C)(C)NC(=O)[C@H](CCCNC(=N)N)NC(=O)[C@H](CCCCN)NC1=O [PSM-0516] (Ac-[Aib][Phe(4-Cl)]CKR[Aib]NC[Tle]-{Ethylenediamine-DOTA}; disulfide 3-8)", "< 12.6 nM"),
    ("C[C@@H](O)[C@H](NC(=O)[C@@H](NC(=O)[C@@H]1CSSC[C@H](NC(=O)[C@H](Cc2ccc(Cl)cc2)NC(=O)[C@](C)(CO)NC(=O)[C@@H](NC(=O)CC2CCN(C(=O)CN3CCN(CC(=O)O)CCN(CC(=O)O)CCN(CC(=O)O)CC3)CC2)[C@@H](C)O)C(=O)N[C@@H](CCCCN)C(=O)N[C@@H](CCCNC(=N)N)C(=O)N[C@@](C)(CO)C(=O)N[C@@H](CC(N)=O)C(=O)N1)C(C)(C)C)C(N)=O [PSM-0407] ({DOTA}-[X1]T[αMeS][Phe(4-Cl)]CKR[αMeS]NC[Tle]T-NH2; disulfide 5-10)", "< 12.6 nM"),
]
